Origin of the recorded values: PubChem BioAssay (NCI)

system: CCRF-CEM leukemia; assay: NCI-60 one-dose screen, 48 h (100 = growth as untreated, 0 = no growth, -100 = all killed); details: 10 µM unless noted
Compounds without any hit were thinned out: in the full panel of roughly 83,000, 20% have a hit.
// map growth onto a label; ranges 1: < 20%; 2: ≥ 20% and < 60%; 3: ≥ 60%

Below, 3 molecules whose answers are already recorded.
C=CC(=O)Nc1ccc(Oc2nccc(Nc3nnc(-c4ccc(C)cc4)s3)n2)cc1 :: 2
CC1(C)N=C(N)N=C(N)N1c1cccc(CCc2ccccc2)c1 :: 2
CC1(C)OB(O)c2cc(-c3nc4ccc5[nH]ncc5c4c4c3CCCC4)ccc21 :: 2

Note: place this molecule into its band. Item: CN1CCN(C(=O)C(C)(C)c2ccc(C(=O)Nc3cn4cc(-c5ccncc5)ccc4n3)cc2)CC1
1

Form field 'band' for COc1cccc(NCc2nnc(Nc3ccc(Cl)cc3)c3ccccc23)c1
1

Bin this entry: CCCCNc1cc(-c2cn[nH]c2-c2cc(C)cc(OC)c2)nc(-c2cccnc2)n1
3

Please classify: COc1ccc(/C=C/C(=O)c2ccc(NC(=O)CSc3nc4c([nH]3)c(=O)n(C)c(=O)n4C)cc2)cc1OC
3
